B1: SFRS1 (parent)
chain: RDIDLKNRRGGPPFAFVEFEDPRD

Variants of: B1
Protocol text: protein stability index of a GFP-peptide fusion (GPS, HEK-293T) (PSI 1-6); higher = more stable;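 note: lentivirally expressed fusions sorted by FACS into six bins by GFP to DsRed ratio, PSI derived from sequencing read proportions per bin multiplied by bin number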
Run conditions: c terminus: a fixed tail appended
Label true (1) when protein stability index is at or above 4; otherwise label false (0).

Chain sequence | Label class
RDIDLKNRRGGPPFAFKEFEDPRD [V17K] | true (1)
RDIDLKNRRGGPCFAFVEFEDPRD [P13C] | true (1)
RDIDLKNRRGGPPFAFVLFEDPRD [E18L] | false (0)
RDIDLKNRRGYPPFAFVEFEDPRD [G11Y] | false (0)
RDIDLKNRRGGPPFAFVEFEDPRG [D24G] | false (0)
RDIDLDNRRGGPPFAFVEFEDPRD [K6D] | false (0)
RDIDLKNRRQGPPFAFVEFEDPRD [G10Q] | true (1)

src = the supplement of paper PMC10567573
